Recorded values, source patent US20240368668A1.

Biological target: mouse ADAMTS7 (Mus musculus, UniProt Q68SA9)
Construct: Full-length mouse Adamts7 1-1857 (Uniprot Q68SA9, WT or E373Q catalytic mutant); expressed in transfected cells; host or cells: Human Coronary Artery Smooth Muscle Cells (HCA-SMC, Lonza), adenovirus 50 MOI
Sequence (Q68SA9 221-1657): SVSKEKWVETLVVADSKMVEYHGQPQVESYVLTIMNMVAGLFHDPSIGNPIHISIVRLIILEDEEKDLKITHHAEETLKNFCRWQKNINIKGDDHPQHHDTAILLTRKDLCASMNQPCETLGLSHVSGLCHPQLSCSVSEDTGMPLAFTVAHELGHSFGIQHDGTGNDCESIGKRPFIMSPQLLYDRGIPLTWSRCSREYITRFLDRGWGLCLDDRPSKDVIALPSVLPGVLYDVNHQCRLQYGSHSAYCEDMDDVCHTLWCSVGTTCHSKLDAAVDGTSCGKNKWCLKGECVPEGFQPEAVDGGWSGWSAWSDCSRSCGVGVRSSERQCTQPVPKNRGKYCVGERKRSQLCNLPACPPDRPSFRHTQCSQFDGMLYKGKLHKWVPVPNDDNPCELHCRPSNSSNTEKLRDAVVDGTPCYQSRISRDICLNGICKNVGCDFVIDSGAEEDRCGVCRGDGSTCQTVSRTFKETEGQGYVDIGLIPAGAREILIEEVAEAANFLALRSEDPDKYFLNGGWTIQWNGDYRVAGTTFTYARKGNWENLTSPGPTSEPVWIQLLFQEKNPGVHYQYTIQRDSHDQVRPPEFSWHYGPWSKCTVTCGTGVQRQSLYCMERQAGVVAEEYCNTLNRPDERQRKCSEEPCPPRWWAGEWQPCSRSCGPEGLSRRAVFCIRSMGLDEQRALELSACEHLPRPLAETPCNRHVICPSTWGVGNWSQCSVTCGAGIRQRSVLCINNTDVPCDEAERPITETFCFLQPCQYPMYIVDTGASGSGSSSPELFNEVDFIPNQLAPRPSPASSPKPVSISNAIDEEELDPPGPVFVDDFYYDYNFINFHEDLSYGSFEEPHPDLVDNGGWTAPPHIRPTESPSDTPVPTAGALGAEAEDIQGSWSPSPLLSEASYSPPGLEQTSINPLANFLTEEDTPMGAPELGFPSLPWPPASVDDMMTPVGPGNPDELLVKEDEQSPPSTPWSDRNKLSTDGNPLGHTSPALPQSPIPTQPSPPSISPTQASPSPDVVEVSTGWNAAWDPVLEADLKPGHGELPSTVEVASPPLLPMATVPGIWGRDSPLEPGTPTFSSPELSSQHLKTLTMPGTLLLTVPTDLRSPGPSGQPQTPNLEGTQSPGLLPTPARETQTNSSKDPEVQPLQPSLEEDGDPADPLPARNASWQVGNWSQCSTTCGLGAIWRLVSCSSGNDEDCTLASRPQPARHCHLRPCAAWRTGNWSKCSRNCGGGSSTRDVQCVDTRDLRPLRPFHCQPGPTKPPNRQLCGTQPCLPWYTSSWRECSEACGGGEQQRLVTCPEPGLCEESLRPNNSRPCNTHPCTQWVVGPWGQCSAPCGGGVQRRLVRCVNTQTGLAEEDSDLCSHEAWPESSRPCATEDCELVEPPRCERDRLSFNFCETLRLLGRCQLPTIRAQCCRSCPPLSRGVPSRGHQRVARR
Assay: TMT10 TAILS N-terminomics, SMC2 experiment (process replicates, trypsin/AspN digest)
Type: cell-based
Conditions: log fold change, ADAMTS7 WT over luciferase
EXPERIMENTAL READOUT: logFC.mWT.over.Lux

SMOC1_35 (LISDRDPQCNLHCSR; listed as Homo sapiens)	1.75

I: SPOCK1_126 (HWVGPSNLVK; listed as Homo sapiens)
II: SERPINH1_27 (AAAPGTAEKLSPKAATLAER; listed as Homo sapiens)
Input: I'm curious whether I or II has the smaller logFC.mWT.over.Lux number. Which is it? Your choice should be expressed through its label.
Output: I
(I: 1.29, II: 2.62)
